Listed below: residual activity values for each entry.
# tgt: HIPK3 (human)
# methodNotes: radiometric filter-binding kinase assay, Kinase HotSpot
# experimentalParameters: compound 0.5 µM; ATP 10 µM
// return numeric value only (unit: %, not printed)

compound | unitsLabel | measuredResult
O=C(O)/C=C/c1cc(Br)c(Br)c(Br)c1Br | % | 96.7
Nc1nnc2[nH]c3ccccc3nc1-2 | % | 97.4
COc1cc2ncc(-c3ccccc3)nc2cc1OC | % | 97.7
CN(C)C[C@H]1CCn2c(c(C3=C(c4cn(C)c5ccccc45)C(=O)NC3=O)c3ccccc32)C1 | % | 111
COc1ccc(OC)c2c(=S)c3ccccc3[nH]c12 | % | 101

The reported value for "CCn1cnc2c(Nc3cccc(Cl)c3)nc(N[C@@H]3CCCC[C@@H]3N)nc21" in terms of residual activity is 102

Form: compound = "O=C1NC(=O)/C(=C\c2ccc3nccnc3c2)S1" ; residual activity = 92.4

For this compound ( "CC(C)[C@H](CO)Nc1nc(Nc2cc(N)cc(Cl)c2)c2ncn(C(C)C)c2n1" ), measured residual activity is 99.4

Lab book: residual activity of "O=C(Nc1cccc(Nc2cc(Nc3cccc(C(F)(F)F)c3)ncn2)c1)C1CC1" noted as 97

The compound listed as O=C1Nc2ccccc2/C1=C1/Nc2ccccc2/C1=N\OCCC(O)CO (stereo unspecified) shows residual activity equal to 66.2

Reported residual activity ( "CN([C@@H](Cc1ccc(OS(=O)(=O)c2cccc3cnccc23)cc1)C(=O)N1CCN(c2ccccc2)CC1)S(=O)(=O)c1cccc2cnccc12" ) = 110

Record "Nc1nccc(-c2c(-c3ccc(F)cc3)ncn2C2CCNCC2)n1" , field residual activity: 97.6

Per the records, this compound ( "O=C1NC(=O)C(c2c[nH]c3ccccc23)=C1c1c[nH]c2ccccc12" ) has residual activity equal to 96
